target: Solute carrier family 2, facilitated glucose transporter member 8 (Homo sapiens); assay: Antagonist activity at human GLUT8 expressed in HEK293 cells transfected with GLUT1 shRNA assessed as inhibition of [3H]2-deoxy-D-glucose uptake preincubated for 5 mins followed by [3H]2-deoxy-D-glucose addition and measured after 6 mins
Sequence (Q9NY64 whole entry): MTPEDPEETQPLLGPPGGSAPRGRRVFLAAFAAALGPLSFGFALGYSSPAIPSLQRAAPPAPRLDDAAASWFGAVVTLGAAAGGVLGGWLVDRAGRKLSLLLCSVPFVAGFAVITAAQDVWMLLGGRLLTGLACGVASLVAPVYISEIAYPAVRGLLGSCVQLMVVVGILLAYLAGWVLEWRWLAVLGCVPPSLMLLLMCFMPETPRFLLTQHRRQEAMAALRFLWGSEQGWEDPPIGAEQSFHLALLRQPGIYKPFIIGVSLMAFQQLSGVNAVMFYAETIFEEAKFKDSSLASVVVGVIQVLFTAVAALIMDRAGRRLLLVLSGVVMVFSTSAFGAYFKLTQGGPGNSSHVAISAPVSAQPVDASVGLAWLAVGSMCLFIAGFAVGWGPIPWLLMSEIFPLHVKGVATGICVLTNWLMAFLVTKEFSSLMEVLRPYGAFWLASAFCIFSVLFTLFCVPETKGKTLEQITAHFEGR
pIC50: −log10 of the molar value.
parameter: pIC50

// solved cases for pIC50 follow
COc1ccc(CC(=O)N(Cc2ccncc2)Cc2cccc(OCCc3ccc(F)cc3)c2)cc1: < 4.00
Oc1cccc(CNCc2ccncc2)c1: < 4.00

Input `COc1ccc(C(=O)N(Cc2ccncc2)Cc2cccc(OCCc3ccc(F)cc3)c2)cc1` . Output pIC50: 5.22

====

target: UniProtKB P11166; assay: Antagonist activity at human GLUT1 expressed in HEK293 cells transfected with GLUT1 shRNA assessed as inhibition of [3H]2-deoxy-D-glucose uptake preincubated for 5 mins followed by [3H]2-deoxy-D-glucose addition and measured after 6 mins
Sequence (P11166 whole entry): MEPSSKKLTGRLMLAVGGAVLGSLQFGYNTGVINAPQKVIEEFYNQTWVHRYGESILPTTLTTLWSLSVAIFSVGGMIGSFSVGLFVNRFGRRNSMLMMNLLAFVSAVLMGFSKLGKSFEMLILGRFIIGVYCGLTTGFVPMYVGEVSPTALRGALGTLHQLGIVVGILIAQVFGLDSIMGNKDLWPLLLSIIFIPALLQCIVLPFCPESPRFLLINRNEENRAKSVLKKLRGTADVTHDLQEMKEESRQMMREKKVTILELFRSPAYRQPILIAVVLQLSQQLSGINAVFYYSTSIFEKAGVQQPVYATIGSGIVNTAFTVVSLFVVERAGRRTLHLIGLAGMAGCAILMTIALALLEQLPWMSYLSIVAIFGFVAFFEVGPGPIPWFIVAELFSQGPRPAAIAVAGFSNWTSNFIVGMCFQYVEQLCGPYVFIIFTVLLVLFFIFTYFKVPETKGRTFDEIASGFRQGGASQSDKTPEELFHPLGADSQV
pIC50: −log10 of the molar value.
parameter: pIC50

COc1ccc(C(=O)N(Cc2ccncc2)Cc2cccc(OCCc3ccc(F)cc3)c2)cc1: < 4.00
Oc1cccc(CNCc2ccncc2)c1: < 4.00

Query `COc1ccc(CC(=O)N(Cc2ccncc2)Cc2cccc(OCCc3ccc(F)cc3)c2)cc1` yields pIC50 of < 4.00

====

system: KMS-11; assay: Antiproliferative activity against human KMS11 cells over-expressing GFP after 72 hrs by CellTiter-Glo assay; type: functional, cell-based; conditions: KMS-11, 72 h
We label by threshold. Values of IC50 strictly beneath 20 µM are yes (1). Values of 20 µM and up are no (0).

COc1ccc(C(=O)N(Cc2ccncc2)Cc2cccc(OCCc3ccccc3)c2)cc1: yes (1)
COc1ccc(C(=O)N(Cc2ccncc2)Cc2cccc(OCc3ccc([N+](=O)[O-])cc3)c2)cc1: yes (1)
COc1ccc(C(=O)N(Cc2ccncc2)Cc2cccc(OCc3ccc(C(F)(F)F)cc3)c2)cc1: yes (1)
COc1ccc(C(=O)N(Cc2ccncc2)Cc2cccc(OCc3ccc(F)cc3)c2)cc1: no (0)

Below: the item to evaluate.
API: query returns whether the molecule falls strictly under 20 µM in IC50. Query: `COc1ccc(C(=O)N(Cc2ccncc2)Cc2cccc(OCCc3ccc(C)cc3)c2)cc1` yes (1)
